Reported GI50 values follow for various molecules
Test system: UO-31 renal
protocolDescription: NCI tumour cell line growth inhibition, 48 h

| molecule | GI50 |
| --- | --- |
| CCC[CH2][Sn](=[O])[CH2]CCC | > 50000 nM |
| CCSC[C@@H]1C[C@](O)(c2ccc(Cl)cc2)[C@@H](c2ccc(Cl)cc2)O1 | 16500 nM |
| CCC(CC)n1cnc2c(-c3cnc(N)cn3)nc(N3CC4CCC(C3)O4)nc21 | 96.1 nM |
| CCC1=C(c2ccc(OC)cc2)C(C)(C)Oc2c1ccc(O)c2CN1CCCC1 | 2190 nM |
| C=C(C)[C@@H]1CC[C@]2(CO)CC[C@]3(C)[C@H](CC[C@@H]4[C@@]5(C)CCCNC(C)(C)[C@@H]5CC[C@]43C)[C@@H]12 | 1560 nM |
| O=C1c2c(c(=O)[nH]c3ccccc23)[C@H](c2ccccc2)[C@@H]2CCCN12 | 2100 nM |
| COc1ccc2c(c1)CCC1C2CC[C@@]2(C)C1CC[C@@H]2NC(=O)Cc1ccc(O)c(O)c1 (some centres not stated) | 3560 nM |
